- System: human GABA A α5β3γ2 receptor (Homo sapiens, UniProt P18507+P31644)
- Assay Details: [3H]flumazenil competition binding to HEK293 cells expressing human GABA A receptors
- Condition Set: competition for [3H]flumazenil (0.5 nM for α5); HEK293 cells expressing human (transiently transfected) receptors; means of two determinations; read-out: hKi GABA Aα5
API: label(entry) gives Y if the entry's Ki is strictly smaller than 5 nM; on equality or larger values it gives N.

- Compound: "Cc1onc(C2CCCCC2)c1COc1ccc(C(=O)NC(C)(C)CO)cn1"
  Category: "N"
- Compound: "CCCCc1noc(C)c1COc1ccc(C(=O)Nc2cnn(C)c2)cn1"
  Category: "Y"
- Compound: "CCCCc1nocc1COc1ccc(C(=O)NC(C)C)cn1"
  Category: "N"
- Compound: "Cc1onc(OCC(C)C)c1COc1ccc(C(=O)NC(C)C)cn1"
  Category: "Y"

We next turn to a different compound, shown below.
Ask | Report whether reported Ki is lower than 5 nM (strictly) for Cc1onc(CCC(F)(F)F)c1COc1ccc(C(=O)NC2CCOCC2)cn1
Reply | N
